- System: 3T3-L1 cells
- measurementNotes: Adiponectin output in culture supernatant of differentiated 3T3-L1 cells (LANCE immunoassay)
- Format: cell-based, mouse
- appliedConditions: adiponectin concentration in culture supernatant, test compound 7 μg/mL, 72 hours; control without compound 24 ng/mL
parameter: Adiponectin output (ng/mL)
# unit: ng/mL | format: bare number

| molecule | measurementUnits | Adiponectin output |
| --- | --- | --- |
| CCCCCCCCCCCC(=O)NC(C)(CC)C(=O)O (racemic) | ng/mL | 78 |
| C=CCCCCCCCCC(=O)N[C@@H](Cc1ccccc1)C(=O)O | ng/mL | 54 |
| CCCCCCCCCCCC(=O)NC(C)(C)C(=O)O | ng/mL | 81 |
| CCCCCCCCCCCC(=O)NC(C)(C(=O)O)C(C)C (racemic) | ng/mL | 87 |
| CCCCCCCCCCCC(=O)N[C@@H](CCSC)C(=O)O | ng/mL | 71 |

Proceeding to the next molecule to report its Adiponectin output.
Suppose we examine the molecule CCCCCCCCCCC(=O)N[C@@H](Cc1ccccc1)C(=O)O ; what Adiponectin output value has been reported?
58

Cited source: patent US7732637B2
